- SETTINGS: 313.15 K; 25000 kPa; Liquid

# COMPOUND, mass density [kg/m3]
rows = [
    ("CCCCCCCCCCn1cc[n+](C)c1.O=S(=O)([N-]S(=O)(=O)C(F)(F)F)C(F)(F)F", 1284.2),
    ("CCn1cc[n+](C)c1.COS(=O)(=O)[O-] [1-ethyl-3-methylimidazolium methylsulfate]", 1287.1),
    ("CCOS(=O)(=O)[O-].CCn1cc[n+](C)c1 [1-ethyl-3-methylimidazolium ethyl sulfate]", 1243.7),
    ("CCn1cc[n+](CC)c1.O=S(=O)([N-]S(=O)(=O)C(F)(F)F)C(F)(F)F [1,3-diethylimidazolium bis[(trifluoromethyl)sulfonyl]imide]", 1467.2),
]
